- system-tested: T1, IL-18 receptor (IL-18Rα and IL-18Rβ) (UniProt Q13478 19-541; O95256 20-599, limits assumed)
- T1 sequence (looked up) 1: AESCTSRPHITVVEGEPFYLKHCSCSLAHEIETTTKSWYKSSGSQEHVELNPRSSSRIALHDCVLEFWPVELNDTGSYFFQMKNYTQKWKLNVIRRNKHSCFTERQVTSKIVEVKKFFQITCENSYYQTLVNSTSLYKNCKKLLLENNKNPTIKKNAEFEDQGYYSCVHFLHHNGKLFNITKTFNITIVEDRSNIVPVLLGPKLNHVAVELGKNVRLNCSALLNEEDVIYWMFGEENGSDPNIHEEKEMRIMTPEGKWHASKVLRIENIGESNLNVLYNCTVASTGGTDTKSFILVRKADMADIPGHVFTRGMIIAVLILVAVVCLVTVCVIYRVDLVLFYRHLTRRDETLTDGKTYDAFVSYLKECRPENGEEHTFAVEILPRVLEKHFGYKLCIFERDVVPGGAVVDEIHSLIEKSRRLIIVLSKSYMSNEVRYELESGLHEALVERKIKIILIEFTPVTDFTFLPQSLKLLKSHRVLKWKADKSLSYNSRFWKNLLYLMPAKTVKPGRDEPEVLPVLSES
- T1 sequence (looked up) 2: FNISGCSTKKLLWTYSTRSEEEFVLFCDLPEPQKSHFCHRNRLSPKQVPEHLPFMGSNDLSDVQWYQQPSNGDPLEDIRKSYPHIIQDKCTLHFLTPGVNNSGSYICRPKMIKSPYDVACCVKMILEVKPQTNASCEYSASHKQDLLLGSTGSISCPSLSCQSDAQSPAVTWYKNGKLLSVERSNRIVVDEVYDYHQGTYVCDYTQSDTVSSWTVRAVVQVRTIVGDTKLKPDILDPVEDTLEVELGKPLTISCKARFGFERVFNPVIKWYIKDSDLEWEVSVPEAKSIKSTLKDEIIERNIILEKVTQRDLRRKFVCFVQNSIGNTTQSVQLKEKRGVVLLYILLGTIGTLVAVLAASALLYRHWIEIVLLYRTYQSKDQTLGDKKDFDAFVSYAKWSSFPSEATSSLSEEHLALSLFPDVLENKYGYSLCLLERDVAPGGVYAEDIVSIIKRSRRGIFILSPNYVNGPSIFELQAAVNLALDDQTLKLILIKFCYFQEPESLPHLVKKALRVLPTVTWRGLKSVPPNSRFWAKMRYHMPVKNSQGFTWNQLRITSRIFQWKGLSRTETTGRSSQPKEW
- assay-text: cell-based or functional assay
quantity-kind: EC50 pM, IFN gamma expression in PBMCs, no BP (pM)
Write it as a number; the unit pM goes unstated.

Completed entries (count: 4):
binder: IL-18 variant G3V, M60K, D157E (ligand) YFVKLESKLSVIRNLNDQVLFIDQGNRPLFEDMTDSDMRDNAPRTIFIISMYKDSQPRGKAVTISVKSEKISTLSSENKIISFKEMNPPDNIKDTKSDIIFFQRSVPGHDNKMQFESSSYEGYFLASEKERDLFKLILKKEDELGDRSIMFTVQNEE
result-number: 6.61
//
binder: IL-18 variant G3V, M60K (ligand) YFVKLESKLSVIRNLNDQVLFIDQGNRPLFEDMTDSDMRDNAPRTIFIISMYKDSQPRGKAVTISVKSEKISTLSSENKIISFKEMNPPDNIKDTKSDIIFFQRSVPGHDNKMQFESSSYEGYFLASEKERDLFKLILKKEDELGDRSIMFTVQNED
result-number: 14.9
//
binder: IL-18 variant G3T, M60K (ligand) YFTKLESKLSVIRNLNDQVLFIDQGNRPLFEDMTDSDMRDNAPRTIFIISMYKDSQPRGKAVTISVKSEKISTLSSENKIISFKEMNPPDNIKDTKSDIIFFQRSVPGHDNKMQFESSSYEGYFLASEKERDLFKLILKKEDELGDRSIMFTVQNED
result-number: 214
//
binder: Comparator 1 (human IL-18 variant M51K, K53S, Q56L, P57A, M60L, S105D, D110S, N111R) (ligand) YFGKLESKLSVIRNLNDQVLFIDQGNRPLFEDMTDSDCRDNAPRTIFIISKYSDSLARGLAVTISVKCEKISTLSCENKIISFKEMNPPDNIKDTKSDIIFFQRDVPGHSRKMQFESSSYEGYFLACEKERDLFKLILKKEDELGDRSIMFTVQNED
result-number: 1.22

# context switch: different binder, same EC50 pM, IFN gamma expression in PBMCs, no BP
Reported EC50 pM, IFN gamma expression in PBMCs, no BP, binder IL-18 variant G3T, M60K, D157E (ligand) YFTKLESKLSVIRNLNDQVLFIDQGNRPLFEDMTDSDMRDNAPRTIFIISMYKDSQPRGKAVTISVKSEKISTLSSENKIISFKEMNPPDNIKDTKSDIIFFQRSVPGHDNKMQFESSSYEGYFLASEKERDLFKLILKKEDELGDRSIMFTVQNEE : ____
127
